# TARGET OR SYSTEM: URP cKD line
# ASSAY INFO: Compound susceptibility assay using cKD lines (72 h, Renilla luciferase)
# Type: cell-based, Plasmodium falciparum
# CONDITION DESCRIPTION: Control, [aTc] used 50.0
READOUT: IC50 (nM)

* CC(C)(CN)c1nc(-c2ccc(Cl)c(O)c2)c(-c2ccnc(N)n2)[nH]1 [MMV030734] | 34

* * *

# TARGET OR SYSTEM: AAT cKD line
# ASSAY INFO: Compound susceptibility assay using cKD lines (72 h, Renilla luciferase)
# Type: cell-based, Plasmodium falciparum
# CONDITION DESCRIPTION: AAT cKD line, Control, [aTc] used 50.0
pIC50: −log10 of the molar value.
READOUT: pIC50

- CC(C)(CN)c1nc(-c2ccc(Cl)c(O)c2)c(-c2ccnc(N)n2)[nH]1: 7.37
